Cited source: patent US7803792B2

The reader will find reported IC50 values listed item by item below.
# target-of-assay: human IBAT (Homo sapiens)
# Sequence (Q12908 1-348): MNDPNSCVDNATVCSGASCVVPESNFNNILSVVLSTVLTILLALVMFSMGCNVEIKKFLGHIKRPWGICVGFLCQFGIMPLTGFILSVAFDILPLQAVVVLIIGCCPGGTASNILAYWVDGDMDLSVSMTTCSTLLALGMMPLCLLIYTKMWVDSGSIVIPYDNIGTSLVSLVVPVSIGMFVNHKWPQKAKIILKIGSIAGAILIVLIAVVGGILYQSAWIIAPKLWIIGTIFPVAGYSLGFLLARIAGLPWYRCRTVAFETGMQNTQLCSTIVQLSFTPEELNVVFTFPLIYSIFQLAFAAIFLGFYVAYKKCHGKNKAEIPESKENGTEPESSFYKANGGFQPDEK
# run-description: In vitro assay of temporarily expressed human IBAT transporter using Cos 7 cells (Test Example 8)
# test-settings: Cos 7 cells temporarily expressing human IBAT; [3H] taurocholate 8 μM, 37° C., 60 minutes
reported-endpoint: IC50 (nM)

{"molecule": "C=CC[N+](C)(C)Cc1cccc(NC(=S)Nc2cccc(C3NC(CCCC)(CCCC)CS(=O)(=O)c4ccc(N(C)C)cc43)c2)c1 (stereo not drawn) [Example 4246]", "reported-endpoint": "IC50", "unit-info": "nM", "numeric-result": 72}
{"molecule": "CCCCC1(CCCC)CS(=O)(=O)c2ccc(N(C)C)cc2C(c2cccc(NC(=S)Nc3ccc(C[N+]4(Cc5ccccc5)CCCCC4)cc3)c2)N1 (stereo not drawn) [Example 3593]", "reported-endpoint": "IC50", "unit-info": "nM", "numeric-result": 70}
{"molecule": "CCC#CC[N+](C)(C)Cc1ccc(NC(=S)Nc2cccc(C3NC(CCCC)(CCCC)CS(=O)(=O)c4ccc(N(C)C)cc43)c2)cc1 (stereo not drawn) [Example 3434]", "reported-endpoint": "IC50", "unit-info": "nM", "numeric-result": 71}
